- EXPERIMENTAL_PROTOCOL: multiple rising dose Phase 1 pharmacokinetics in healthy subjects
- Format: in vivo, human
- ASSAY_CONDITIONS: both sexes, human, plasma, oral, 100 mg, multiple dose 100 mg, after 14 days, Elderly Male and Female; read-out: Ctrough
MEASURED_METRIC: concentration at 14 days (ng/mL)
Numbers only, in ng/mL.

Q: Request the reported concentration at 14 days associated with O=C(Nc1ccc(C[C@@H]2CC[C@H]([C@H](O)c3ccccc3)N2)cc1)[C@@H]1CCc2nccc(=O)n21
Result: 54.2

----------
- EXPERIMENTAL_PROTOCOL: single rising oral dose Phase 1 pharmacokinetics in healthy subjects
- Type: in vivo, human
- ASSAY_CONDITIONS: male, human, plasma, oral, 50 mg, single 50 mg, healthy young males, Japanese; read-out: AUC0-inf
MEASURED_METRIC: AUC(0-inf) (ng·h/mL)
Give bare numbers, in ng·h/mL.

Q: Request the reported AUC(0-inf) associated with O=C(Nc1ccc(C[C@@H]2CC[C@H]([C@H](O)c3ccccc3)N2)cc1)[C@@H]1CCc2nccc(=O)n21
Result: 885

----------
- EXPERIMENTAL_PROTOCOL: single rising oral dose Phase 1 pharmacokinetics in healthy subjects
- Assay type: in vivo, human
- ASSAY_CONDITIONS: male, human, plasma, oral, 50 mg, single 50 mg, healthy young males, Japanese; read-out: AUC0-24
MEASURED_METRIC: AUC(0-t) (ng·h/mL)
Numbers only, in ng·h/mL.

Q: Request the reported AUC(0-t) associated with O=C(Nc1ccc(C[C@@H]2CC[C@H]([C@H](O)c3ccccc3)N2)cc1)[C@@H]1CCc2nccc(=O)n21
Result: 385

----------
- EXPERIMENTAL_PROTOCOL: multiple rising dose Phase 1 pharmacokinetics in healthy subjects
- Assay type: in vivo, human
- ASSAY_CONDITIONS: male, human, plasma, oral, 50 mg, multiple dose 50 mg, after 14 days, healthy young males; read-out: Ctrough
MEASURED_METRIC: concentration at 14 days (ng/mL)
Numbers only, in ng/mL.

Q: Request the reported concentration at 14 days associated with O=C(Nc1ccc(C[C@@H]2CC[C@H]([C@H](O)c3ccccc3)N2)cc1)[C@@H]1CCc2nccc(=O)n21
Result: 15.2

----------
- EXPERIMENTAL_PROTOCOL: single rising oral dose Phase 1 pharmacokinetics in healthy subjects
- Format: in vivo, human
- ASSAY_CONDITIONS: male, human, plasma, oral, 50 mg, single 50 mg, healthy young males; read-out: AUC0-24
MEASURED_METRIC: AUC(0-t) (ng·h/mL)
Give bare numbers, in ng·h/mL.

Q: Request the reported AUC(0-t) associated with O=C(Nc1ccc(C[C@@H]2CC[C@H]([C@H](O)c3ccccc3)N2)cc1)[C@@H]1CCc2nccc(=O)n21
Result: 219

Data provenance: patent US12102638B2
